All values here come from paper PMC8904554.

System: human erythrocytes
measurement description: Hemolysis assay using chemically synthesized peptides; on Hemolysis at 16MIC: relative to full lysis with 2.5% Triton-X100
Type: cell-based
condition set: peptide at 16 × MIC; human erythrocytes 1:50 in DPBS; 1 h, 37 °C; absorbance 540 nm; relative to full lysis with […] Triton-X100; n = 4
Ends that are not written are not given here.
endpoint name: Hemolysis at 16MIC (%)
One number for each entry, in %.

Observe how each entry below is paired with its result.
Q: Determine from records and report Hemolysis at 16MIC for GFKDWIKGAAKKLIKTVASSIANE [Ascaphin-6 9286 APD]
A: 1.4

Q: Determine from records and report Hemolysis at 16MIC for VSKIKKYLKYKDRI [P-10 8942 APD]
A: 2.2

Q: Determine from records and report Hemolysis at 16MIC for VDKGGYLPRPTPPRPVYR [Pyrrhocoricin 7122 NCBI]
A: 2.3

Q: Determine from records and report Hemolysis at 16MIC for LKDKVKSMGEKLKQYIQTWKAKF [Latarcin 4a 5147 APD]
A: 2.8

Q: Determine from records and report Hemolysis at 16MIC for AIAKLVAKFGWPIVKKYYKQIMQFIGEGWAINKIIEWIKK [Enterocin RJ-11 3780 NCBI]
A: 103.3

Q: Determine from records and report Hemolysis at 16MIC for GKFSGFAKILKSIAKFFKGVGKVRKGFKEASDLDKNQ [Oxyopinin 2b 9690 APD]
A: 63.4

Q: Determine from records and report Hemolysis at 16MIC for KRFKKFFKKLKKSVKKRAKKFFKKPRVIGVSIPF [BF-CATH 9639 APD]
A: 4.8

Proceed to the following item.
Q: Determine from records and report Hemolysis at 16MIC for GWFKKAWRKVKHAGRRVLDTAKGVGRHYLNNWLNRYR [HFIAP-1 4545 NCBI]
A: 18.9

----------
Test system: E. coli TOP10
measurement description: microbe, parasite or virus in culture
Format: cell-based, Escherichia coli
condition set: 25% (diluted) Mueller-Hinton Broth; 5 × 10^5 cells ml^−1; twofold dilutions; 18 h, 37 °C, no shaking; OD read-out, MIC = < 5% of OD of growth control; mean, n = 3
Ends that are not written are not given here.
endpoint name: MIC [µM] 25%MHB (µM)
Give bare numbers, in µM.

Observe how each entry below is paired with its result.
Q: Determine from records and report MIC [µM] 25%MHB for GWFKKAWRKVKHAGRRVLDTAKGVGRHYLNNWLNRYR [HFIAP-1 4545 NCBI]
A: 0.5

Q: Determine from records and report MIC [µM] 25%MHB for LKDKVKSMGEKLKQYIQTWKAKF [Latarcin 4a 5147 APD]
A: 5

Q: Determine from records and report MIC [µM] 25%MHB for AIAKLVAKFGWPIVKKYYKQIMQFIGEGWAINKIIEWIKK [Enterocin RJ-11 3780 NCBI]
A: 1

Q: Determine from records and report MIC [µM] 25%MHB for VDKGGYLPRPTPPRPVYR [Pyrrhocoricin 7122 NCBI]
A: 8

Q: Determine from records and report MIC [µM] 25%MHB for KRFKKFFKKLKKSVKKRAKKFFKKPRVIGVSIPF [BF-CATH 9639 APD]
A: 1

Q: Determine from records and report MIC [µM] 25%MHB for VSKIKKYLKYKDRI [P-10 8942 APD]
A: 13

I'm hoping you can list MIC [µM] 25%MHB for every sequence here, please.
1. GKFSGFAKILKSIAKFFKGVGKVRKGFKEASDLDKNQ [Oxyopinin 2b 9690 APD]
2. GFKDWIKGAAKKLIKTVASSIANE [Ascaphin-6 9286 APD]

A:
[0.5, 1]

----------
System: human erythrocytes
measurement description: Hemolysis assay using chemically synthesized peptides
Format: cell-based
condition set: peptide at MIC; human erythrocytes 1:50 in DPBS; 1 h, 37 °C; absorbance 540 nm; relative to full lysis with […] Triton-X100; n = 4
Ends that are not written are not given here.
endpoint name: Hemolysis at MIC (%)
Give bare numbers, in %.

Observe how each entry below is paired with its result.
Q: Determine from records and report Hemolysis at MIC for VDKGGYLPRPTPPRPVYR [Pyrrhocoricin 7122 NCBI]
A: 1.1

Q: Determine from records and report Hemolysis at MIC for GFKDWIKGAAKKLIKTVASSIANE [Ascaphin-6 9286 APD]
A: 0

Q: Determine from records and report Hemolysis at MIC for GKFSGFAKILKSIAKFFKGVGKVRKGFKEASDLDKNQ [Oxyopinin 2b 9690 APD]
A: 0.7

Q: Determine from records and report Hemolysis at MIC for VSKIKKYLKYKDRI [P-10 8942 APD]
A: 0.5

Q: Determine from records and report Hemolysis at MIC for AIAKLVAKFGWPIVKKYYKQIMQFIGEGWAINKIIEWIKK [Enterocin RJ-11 3780 NCBI]
A: 22.7

Q: Determine from records and report Hemolysis at MIC for GWFKKAWRKVKHAGRRVLDTAKGVGRHYLNNWLNRYR [HFIAP-1 4545 NCBI]
A: 4.1

Q: Determine from records and report Hemolysis at MIC for LKDKVKSMGEKLKQYIQTWKAKF [Latarcin 4a 5147 APD]
A: 0.2

Proceed to the following item.
Q: Determine from records and report Hemolysis at MIC for KRFKKFFKKLKKSVKKRAKKFFKKPRVIGVSIPF [BF-CATH 9639 APD]
A: 2.1
